# ASSAY_PROTOCOL: chemical genetic growth profiling, strain panel (AID 1159580);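 also: tested at 20 µM; growth read once vehicle control cultures reached saturation at 30 °C; lower values mean less growth of the strain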
# CONDITION_PARAMETERS: S. cerevisiae deletion strains, growth OD, locus YML094W, strain GIM5, hits give low values
Out of some 5,500 compounds screened, about 2,000 (36%) were called active. Not shown: some 18% with an inconclusive outcome. This is one part of the list.
// boundary case: normalized growth equal to 1 maps to False; strictly smaller maps to True

Below are worked cases with known answers.
>>> discrete_label("O=C(O)C1c2ccccc2C(=O)N(Cc2ccc3c(c2)OCO3)C1c1cccnc1 (centres undefined)")
"False"
>>> discrete_label("Cc1cc(N=C(N)N=C(N)N)no1")
"False"
>>> discrete_label("O=C(NNC(=S)Nc1cccc(Cl)c1)c1cccnc1")
"True"
>>> discrete_label("COc1cc(C2Nc3cccc4cccc(c34)N2)cc(OC)c1OC")
"True"
>>> discrete_label("Cc1ccc(NC(=S)C(C#N)C(=O)N2CCCC2)c(C)c1 (centres undefined)")
"False"

Enquiry: Consider `CCOC(=O)c1ccc(N2CCOCC2)c(N=Cc2cc(Cl)ccc2O)c1` . Does its normalized growth lie strictly below 1?
Return: True
